TEST_TARGET: CD33 (Sino Biological, Cat #12238-H08H) (UniProt P20138 18-259)
Sequence (P20138 18-259 limits assumed): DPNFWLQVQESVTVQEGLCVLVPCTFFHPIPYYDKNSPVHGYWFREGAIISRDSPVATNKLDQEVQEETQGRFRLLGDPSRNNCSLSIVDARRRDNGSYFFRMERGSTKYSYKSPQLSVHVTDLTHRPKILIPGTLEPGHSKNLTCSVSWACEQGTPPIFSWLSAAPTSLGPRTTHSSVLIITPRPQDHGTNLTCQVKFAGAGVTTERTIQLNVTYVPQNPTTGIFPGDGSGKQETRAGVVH
TEST: BLI, IgG captured on anti-human Fc sensor, 50 nM CD33, pH 7.4 vs pH 5.0
VALUE_TYPE: binding result

BINDER	RESULT
MYT0500 (antibody, V domains shown, IgG; gemtuzumab VH variant #19 (T58H)) VH: EVQLVQSGAEVKKPGSSVKVSCKASGYTITDSNIHWVRQAPGQSLEWIGYIYPYNGGHDYNQKFKNRATLTVDNPTNTAYMELSSLRSEDTDFYYCVNGNPWLAYWGQGTLVTVSS VL: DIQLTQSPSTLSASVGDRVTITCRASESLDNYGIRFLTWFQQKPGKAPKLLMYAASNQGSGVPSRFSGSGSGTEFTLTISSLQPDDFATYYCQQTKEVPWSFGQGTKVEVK	binds
MYT0494 (antibody, V domains shown, IgG; gemtuzumab VH variant #13 (Y52H)) VH: EVQLVQSGAEVKKPGSSVKVSCKASGYTITDSNIHWVRQAPGQSLEWIGYIHPYNGGTDYNQKFKNRATLTVDNPTNTAYMELSSLRSEDTDFYYCVNGNPWLAYWGQGTLVTVSS VL: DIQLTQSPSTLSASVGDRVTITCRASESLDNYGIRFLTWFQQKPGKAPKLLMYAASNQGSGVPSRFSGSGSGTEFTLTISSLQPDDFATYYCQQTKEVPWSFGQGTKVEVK	binds
MYT0516 (antibody, V domains shown, IgG; gemtuzumab VH variant #35 (A104H)) VH: EVQLVQSGAEVKKPGSSVKVSCKASGYTITDSNIHWVRQAPGQSLEWIGYIYPYNGGTDYNQKFKNRATLTVDNPTNTAYMELSSLRSEDTDFYYCVNGNPWLHYWGQGTLVTVSS VL: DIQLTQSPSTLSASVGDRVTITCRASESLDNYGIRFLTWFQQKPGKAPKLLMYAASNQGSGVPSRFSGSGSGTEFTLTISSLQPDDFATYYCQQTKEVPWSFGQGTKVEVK	binds
